# Test system: HCT-116 colon
# procedure text: NCI tumour cell line growth inhibition, 48 h
Where a SMILES comes first, the peptide text is derived from it. [ ]: non-standard residue; d: D form. The star is where a group is joined. Phe(4-NO2) = N[CH](Cc1ccc([N+](=O)[O-])cc1)C(=O)O; Boc = CC(C)(C)OC(=O)*; OtBu = CC(C)(C)O*
TGI of 20 µM or higher: Y. Under 20 µM: N.

| compound | assigned category |
| --- | --- |
| CC(C)(OCc1ccccc1)c1ccccc1P(c1ccccc1)c1ccccc1 | Y |
| COc1ccc(/C=C2\N=C(SC)N(C)C2=O)cc1 | Y |
| COc1ccc2nc(C)cc(NCCCCCCCCCNc3cc(C)nc4ccc(OC)cc34)c2c1 | N |
| C=C(CN(C)C)C(=O)c1ccc(OC2OC(COC(C)=O)C(OC(C)=O)C(OC(C)=O)C2OC(C)=O)cc1 (centres undefined) | N |
| O=C1C(=O)c2c(O)ccc(O)c2C(O)=C1Cl | Y |
| Cc1cccc(-c2nnc3s/c(=C\c4ccc5c(c4)OCO5)c(=O)n23)c1 | Y |
| CC(=O)CC(=O)Nc1c(C)[c]([Hg][O]C(C)=O)c(C)[c]([Hg][O]C(C)=O)[c]1[Hg][O]C(C)=O | Y |
| CCCCCCCc1c(Cl)nc(Cl)nc1Cl | N |
| COc1ccc(/C(Cl)=C(\C=O)c2ccc(Cl)c(Cl)c2)cc1 | N |
| C=C(Nc1ccc(OC)cc1OC)C(=O)Cc1cccc[n+]1[O-] | Y |
| O=c1c2c3c(sc2nc(CN2CCNCC2)n1-c1ccccc1)CCCC3 | Y |
| CC1=c2c(oc3cc(O)c(Nc4c(C)cc(O)cc4O)c(C)c23)=CC(=O)C1=Nc1c(C)cc(O)cc1O | Y |
| c1ccc2c(c1)c(N1CCCCC1)cc1nc3c(cc(N4CCCCC4)c4ccccc43)nc12 | Y |
| O=C1CC[C@@]2(O)[C@H]3Cc4ccc(-c5cccc(O)c5)c5c4[C@@]2(CCN3CC2CC2)[C@H]1O5 | Y |
| CCOC(=O)c1nc2ccccc2nc1Nc1ccc(Cl)c(Cl)c1 | Y |
| S=C(NC/C(Br)=C/Br)Nc1cccc2ccccc12 | Y |
| CC1=NN(c2cccc(Cl)c2)C2(SCC(=O)N2c2nc3ccccc3s2)/C1=C\c1ccccc1 (centres undefined) | Y |
| CC(C)(C)c1ccc2c(c1)C(O)(c1ccccc1)c1cc(C(C)(C)C)ccc1C2(O)C(F)(F)F (centres undefined) | N |
| CC(=O)NC(CCC(=O)OC(C)(C)C)C(=O)NC(CCC(=O)OC(C)(C)C)C(=O)NC(Cc1ccc([N+](=O)[O-])cc1)C(=O)NC(CCCCNC(=O)OC(C)(C)C)C(=O)NC(CCCCNC(=O)OC(C)(C)C)C(=O)NCC(=O)O (centres undefined) (Ac-E(OtBu)E(OtBu)[Phe(4-NO2)]K(Boc)K(Boc)G-OH; configuration not given here) | Y |
| O=C(CCc1n[nH]c(=S)o1)Nc1cc(Cl)c(Cl)cc1Cl | Y |
| O=CC1C(Cl)=Nc2nc3ccccc3n2C1c1ccc([N+](=O)[O-])cc1 (centres undefined) | Y |
| N#CC(/C(=N/N=C(N)N)C(=O)Nc1ccccc1[N+](=O)[O-])c1nc(-c2ccc([N+](=O)[O-])cc2)cs1 (centres undefined) | Y |
| COc1ccc2nccc(NCCCN3CCN(CCCNc4ccnc5ccc(OC)cc45)CC3)c2c1 | N |
| COc1cc(/C=C/c2ccc(/C=C/c3cc(OC)c(OC)c(OC)c3)cc2)cc(OC)c1OC | Y |
| O=c1c(O)c(-c2ccccc2)n(O)c2ccc(Cl)cc12 | Y |
| Cn1c2c(c3ccc(-c4ccn[nH]4)cc3c1=O)C(=O)c1ccccc1-2 | N |
| COc1ccc(N=Nc2c(O)ccc3ccccc23)cc1 | Y |
| N#Cc1c(-c2ccc(Cl)cc2)cc(-c2ccc(Nc3ccnc4cc(C(F)(F)F)ccc34)cc2)nc1N | Y |
| NC1CCC[C@H]1O (some centres undefined) | Y |
| CCOC(=O)c1nc2cc(C(F)(F)F)ccc2nc1Nc1ccc(OC)c(OC)c1 | Y |
| Cc1occc(=O)c1O | Y |
| CC(C)=CCC/C(C)=C/CC/C(C)=C/CCN(C)CCO | N |
| COCCCN(Cc1cc(OC)c(OC)c(OC)c1)C(=S)Nc1cccc(Cl)c1 | Y |
| Nc1cc(N)c2nc(-c3ccccc3)c(Sc3ccc(Cl)c(Cl)c3)nc2c1 | Y |
| Cc1ccc2nc(-n3c(/C=C/c4ccccc4O)nc4ccccc4c3=O)sc2c1 | Y |
| CN(C)CCc1ccc(Cl)cc1Cl | Y |
| O=S(=O)(O)c1cc(N=Nc2c(O)ccc3ccccc23)c2c(S(=O)(=O)O)cccc2c1 | Y |
| COC1=CC(=C(C#N)C(=Nc2ccccc2)SC)C=C(OC)C1=O | Y |
| O=C(O[C@H]1CN[C@H](C#Cc2cc3ncnc(Nc4ccc5c(cnn5Cc5ccccc5)c4)c3s2)C1)N1CCOCC1 | Y |

====

# Tested on: EKVX NSCLC
# procedure text: NCI tumour cell line growth inhibition, 48 h
quantity name: TGI

| molecule | assay result |
| --- | --- |
| COc1ccc2nc3c([N+](=O)[O-])ccc4c3c(c2c1)N(CCCN(C)C)C(=S)N4CCCN(C)C | 31 µM |
| C=C1C[C@@H](O)[C@@H](Br)C(C)(C)[C@@]12C=CC(O)(CBr)CC2 (some centres undefined) | 79.2 µM |
| CN(CC(=O)O)S(=O)(=O)c1ccc(F)cc1 | > 100 µM |
| CC1CC(C)CN(S(=O)(=O)c2cc(Cl)c(Oc3ccc([N+](=O)[O-])cc3Cl)c(Cl)c2)C1 (centres undefined) | > 100 µM |
| Cc1cc(C)c(C2CC(O)C(CO)O2)cc1C (centres undefined) | > 100 µM |
| Nc1ccc2c(c1)S(=O)(=O)c1cc(O)ccc1O2 | > 100 µM |
| Cc1cn(CCCCCCOC(=O)NC(CCCN=C(N)N)C(=O)O)c(=O)[nH]c1=O (centres undefined) | > 100 µM |
| CCCCCCCCCCCCCCCCCCNc1ccn(C2OC(CO)C(OP(=O)(O)OCC(COP(=O)(O)OCC3OC(n4cc(F)c(NCCCCCCCCCCCCCCCCCC)nc4=O)CC3O)OC(=O)CCCCCCCCCCCCCCC)C2O)c(=O)n1 (centres undefined) | > 100 µM |
| O=C1Cc2c([nH]c3ccc([N+](=O)[O-])cc23)-c2ccccc2N1 | 2.38 µM |

====

# Test system: SW-620 colon
# procedure text: NCI tumour cell line growth inhibition, 48 h
quantity name: TGI

| compound | assay result |
| --- | --- |
| C=C(CN(C)C)C(=O)c1ccc(OC2OC(COC(C)=O)C(OC(C)=O)C(OC(C)=O)C2OC(C)=O)cc1 (stereo not given) | 3.17 µM |
| CN1CCN(c2ccc(N3Cc4ccccc4OC4=C3C(=O)c3c(O)ccc(O)c3C4=O)cn2)CC1 | 0.635 µM |
| CN(C)CCc1ccc(Cl)cc1Cl | > 100 µM |
| CC1=NN(c2nc(N)nc(COCc3nc(N)nc(N4N=C(C)CC4(C)C)n3)n2)C(C)(C)C1 | > 100 µM |
| C=C1C[C@@H](O)[C@@H](Br)C(C)(C)[C@@]12C=CC(O)(CBr)CC2 (stereo not given in full) | > 100 µM |
| CCOc1ccc(NC(=O)C(=O)C2C(=O)Nc3ccccc3S2=O)cc1 (stereo not given) | > 100 µM |
| COc1ccc(/C(Cl)=C(\C=O)c2ccc(Cl)c(Cl)c2)cc1 | 19.3 µM |
| S=C(N/N=C/c1ccccc1)NC12CC3CC(CC(C3)C1)C2 | > 100 µM |
| COc1cc(/C=C/c2ccc(/C=C/c3cc(OC)c(OC)c(OC)c3)cc2)cc(OC)c1OC | > 100 µM |
| COCCCN(Cc1cc(OC)c(OC)c(OC)c1)C(=S)Nc1cccc(Cl)c1 | > 100 µM |
| CC(=O)CC(=O)Nc1c(C)[c]([Hg][O]C(C)=O)c(C)[c]([Hg][O]C(C)=O)[c]1[Hg][O]C(C)=O | 27.4 µM |
| CNC(=S)N/N=C(\C)c1cc(OC)ccc1O | > 100 µM |
| CCC1=C(C)c2cc3[n-]c(cc4nc(c(C=O)c5[n-]c(cc1n2)c(C)c5CC)C(C)=C4CC)c(C)c3CC.[Ni+2] | > 100 µM |
| Cc1cnc(Cl)nc1C(C#N)c1nc2ccccc2s1 (stereo not given) | > 100 µM |
| O=C(c1ccc(Cl)c(Cl)c1)N(Cc1cccnc1)C(=S)N(Cc1cccnc1)C(=O)c1ccc(Cl)c(Cl)c1 | > 100 µM |
| Cc1nnc(N)nc1/C=C\c1ccc(N(C)C)cc1 | > 100 µM |
| Oc1c(-c2ccccc2)nc2ccccn12 | > 100 µM |
| Cc1cc(C)c(C2CC(O)C(CO)O2)cc1C (stereo not given) | > 100 µM |
| N#Cc1cccc(N2C(=O)c3ccc(C(=O)c4ccc5c(c4)C(=O)N(c4cccc(C#N)c4)C5=O)cc3C2=O)c1 | > 100 µM |
| Cc1ccccc1C1=C/C(=C(\SS/C(C(=O)c2ccc(OCC(=O)O)c(Cl)c2Cl)=C2\C=C(c3ccccc3C)SS2)C(=O)c2ccc(OCC(=O)O)c(Cl)c2Cl)SS1 | 67.7 µM |
